- TARGET_SYSTEM: T1, GAS41 (UniProt O95619 1-227)
- T1 construct: GAS41 (YEATS4), a YEATS domain-containing protein
- T1 sequence (O95619 whole entry, the tested form may be a part): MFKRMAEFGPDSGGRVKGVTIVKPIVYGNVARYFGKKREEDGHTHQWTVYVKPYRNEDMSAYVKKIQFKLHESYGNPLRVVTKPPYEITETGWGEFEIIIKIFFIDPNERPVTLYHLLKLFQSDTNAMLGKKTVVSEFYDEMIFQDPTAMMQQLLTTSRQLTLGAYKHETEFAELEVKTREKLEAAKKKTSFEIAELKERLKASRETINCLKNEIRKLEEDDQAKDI
- TEST_DETAILS: ITC; MicroCal PEAQ ITC, 15°C; protein at 100 μM dropped into the 1000 μM peptide, 19 drops; one set of binding sites model
- STUDY_CONDITIONS: both partners purified
READOUT: Kd (µM)
The answer is to be given in µM; state only the numeric part.

// query Kd value for entry ARTKQTARKSTGGKAPR (peptide, UniProt P68431 2-18, looked up, β-hydroxybutyryl-lysine at K9, histone H3, residues 1-17; The text calls the ITC peptides 'histone H3K14 (1–17) peptides', the legend 'H31-17 peptides'; also called H3K9bhb peptide; source: synthetic peptide (Beijing SciLight Biotechnology, HPLC purified)) [β-hydroxybutyryl histone H3 1-17 peptide (H3K9bhb)]
6.7
